study_system: mMOR-1 (Mus musculus, UniProt P42866)
Sequence (P42866 whole entry): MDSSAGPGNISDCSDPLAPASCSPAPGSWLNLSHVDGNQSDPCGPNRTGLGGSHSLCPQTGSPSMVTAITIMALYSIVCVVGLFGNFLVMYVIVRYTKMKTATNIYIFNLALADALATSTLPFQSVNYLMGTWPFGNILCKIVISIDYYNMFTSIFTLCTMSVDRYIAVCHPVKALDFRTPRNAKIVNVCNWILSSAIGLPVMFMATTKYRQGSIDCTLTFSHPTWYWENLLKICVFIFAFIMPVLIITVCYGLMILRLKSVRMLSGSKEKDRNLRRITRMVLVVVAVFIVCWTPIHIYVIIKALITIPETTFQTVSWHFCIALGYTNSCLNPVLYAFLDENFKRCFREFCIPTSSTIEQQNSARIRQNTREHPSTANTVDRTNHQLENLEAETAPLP
test_method_notes: [35S]GTPγS functional assay
Assay type: biochemical
setup_conditions: read-out: mMOR-1 EC50; [35S]GTPγS binding, mean ± SEM, 3 replications
Each item that follows carries a reported EC50.

O=C(N[C@@H]1CC[C@@]2(O)[C@H]3Cc4ccc(O)c5c4[C@@]2(CCN3CC2CC2)[C@H]1O5)c1cccc(I)c1 [IBNtxA, 3’-iodobenzoylnaltrexamide] : 0.49 nM

Now turn to the next compound.
Request: Quick one: EC50 for `C=CCN1CC[C@]23c4c5ccc(O)c4O[C@H]2[C@H](NC(=O)c2cccc(I)c2)CC[C@@]3(O)[C@H]1C5` ?
Response: 1.4 nM

----------
study_system: mMOR-1 (Mus musculus)
test_method_notes: [35S]GTPγS functional assay
Assay type: biochemical
Each item that follows carries a reported EC50.
Your answer should be a number followed by the unit of measure.

C#CCN1CC[C@]23c4c5ccc(O)c4O[C@H]2[C@H](NC(=O)c2ccc(N=[N+]=[N-])c(I)c2)CC[C@@]3(O)[C@H]1C5 : 1.1 nM

Request: What reported EC50 corresponds to `C=CCN1CC[C@]23c4c5ccc(O)c4O[C@H]2[C@H](NC(=O)c2ccc(N=[N+]=[N-])c(I)c2)CC[C@@]3(O)[C@H]1C5` on mMOR-1 (Mus musculus)?
Response: 0.86 nM

----------
Let's go through some Ki measurements on 6TM/E11 (Mus musculus, UniProt P42866) together.
Sequence (P42866 95-386 limits assumed): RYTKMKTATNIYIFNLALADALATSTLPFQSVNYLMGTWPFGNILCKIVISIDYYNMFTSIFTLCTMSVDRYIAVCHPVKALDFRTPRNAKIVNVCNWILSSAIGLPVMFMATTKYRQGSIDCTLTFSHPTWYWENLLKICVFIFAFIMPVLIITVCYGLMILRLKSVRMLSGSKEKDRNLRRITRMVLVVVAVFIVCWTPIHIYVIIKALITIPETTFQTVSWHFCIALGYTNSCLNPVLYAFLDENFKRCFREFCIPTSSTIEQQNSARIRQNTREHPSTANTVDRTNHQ
Value expressed in nM; do not type the unit.

C#CCN1CC[C@]23c4c5ccc(O)c4O[C@H]2[C@H](NC(=O)c2ccc(N=[N+]=[N-])c(I)c2)CC[C@@]3(O)[C@H]1C5 : 12

Now turn to the next compound.
Request: Quick one: Ki for `C=CCN1CC[C@]23c4c5ccc(O)c4O[C@H]2[C@H](NC(=O)c2ccc(N=[N+]=[N-])c(I)c2)CC[C@@]3(O)[C@H]1C5` ?
Response: 4.64
